Test: Aged retention of fragrance components in powder detergent, GC/MS
Assay type: physicochemical
Settings: composition as Example 1 without coating in detergent base; 1 month, 37° C., 70% relative humidity
endpoint_name: Retention Without coating

Prompt line: Given the entry CC(C)=CCCC(C)CCO (stereo not drawn) [Citronellol] , report its measured Retention Without coating.
Response line: 18%

Prompt line: Item: CC(C=O)Cc1ccc(C(C)(C)C)cc1 (stereo not drawn) [Lilial]
Response line: 36%

Prompt line: Input C=C(C)[C@H]1CC=C(C)CC1 [Limonene]
Response line: 18%

Prompt line: Same for CCC(C)(O)CCCC(C)C (stereo not drawn) [Tetrahydro linalool]
Response line: 50%

Prompt line: Queued: CCCCCCOC(=O)c1ccccc1O [Hexyl salicylate]
Response line: 47%

Prompt line: Can you handle OCCc1ccccc1 [Phenyl ethyl alcohol] next?
Response line: 36%

====

Assay: Loss Factor (vapour pressure x water solubility at room temperature)
Type: physicochemical
Conditions: vapour pressure (Pa) x water solubility (ppm), room temperature
endpoint_name: Loss Factor FL (Pa ppm)
Give a bare numeral; the unit Pa ppm is implied.

Prompt line: Dear colleague, I am looking for the recorded Loss Factor FL of the following compound: CCC(C)(O)CCCC(C)C (stereo not shown) [Tetrahydro linalool]
Response line: 3466

Prompt line: Next compound up: CC(C)=CCCC(C)CCO (stereo not shown)
Response line: 761

Prompt line: Same for O=C(OC1CCCCC1)c1ccccc1O [Cyclohexyl salicylate]
Response line: 1.37

Prompt line: Cool, now CC(=O)/C=C/C1=C(C)CCCC1(C)C
Response line: 90

====

Assay: Retention of fragrance material components after granulation by GC/MS
Assay type: physicochemical
Conditions: whole fragrance in outer matrix (Example 2.1)
Returns yes if the recorded Undivided. Initial Retention is greater than or equal to 50%, and no otherwise.

Prompt line: Given the entry O=C(OCc1ccccc1)c1ccccc1 [Benzyl benzoate] , answer whether its Undivided. Initial Retention meets or surpasses 50%.
Response line: yes

Prompt line: And what about the compound CC(=O)CCC1=C(C)CCCC1(C)C [Dihydro beta ionone] ?
Response line: yes

Prompt line: Subsequent entry: O=C(OC1CCCCC1)c1ccccc1O [Cyclohexyl salicylate]
Response line: yes

Prompt line: Entry to check: CCC(C)(O)CCCC(C)C (stereo not shown) [Tetrahydro linalool]
Response line: no

Prompt line: Next up: CC(C)=CCCC(C)CCO (stereo not shown)
Response line: yes

Prompt line: CC(=O)/C=C/C1=C(C)CCCC1(C)C , same question.
Response line: yes

Prompt line: Likewise for CCCCCCCCCC=O ?
Response line: no

====

Test: Aged retention of fragrance components in powder detergent, GC/MS
Assay type: physicochemical
Conditions: composition as Example 1 with coating in detergent base; 1 month, 37° C., 70% relative humidity
If the reported Retention With coating equals or exceeds 60%, assign Satisfied. If not, assign Not satisfied.

Prompt line: # check: Retention With coating of CC(C)=CCCC(C)CCO (stereo not drawn) is greater than or equal to 60%
Response line: Satisfied

Prompt line: Now the same for CCC(C)(O)CCCC(C)C (stereo not drawn) [Tetrahydro linalool]
Response line: Satisfied

Prompt line: Follow-up entry: OCCc1ccccc1
Response line: Satisfied

Prompt line: Next compound up: CCCCCCOC(=O)c1ccccc1O [Hexyl salicylate]
Response line: Satisfied

Prompt line: Moving on to the next compound: C=C(C)[C@H]1CC=C(C)CC1
Response line: Not satisfied

Prompt line: Likewise for CC(=O)OCc1ccccc1 [Benzyl acetate] ?
Response line: Not satisfied

Prompt line: Now consider CC(C=O)Cc1ccc(C(C)(C)C)cc1 (stereo not drawn) and answer again.
Response line: Satisfied

Prompt line: What about this compound? C=CC(C)(CCC=C(C)C)OC(C)=O (stereo not drawn) [Linalyl acetate]
Response line: Satisfied

Prompt line: Input CC(=O)/C(C)=C/C1C(C)=CCCC1(C)C (stereo not drawn)
Response line: Satisfied
